Listed below are compounds with IC50 for High affinity nerve growth factor receptor (Homo sapiens), each taken from published literature.
Numbers only, in nM.

Below, each entry is followed by its recorded IC50 result.
                               entry_smiles  obs_value
0  Fc1cc(F)cc(-c2ccc3[nH]nc(/C=C/c4ccccn4)c3c2)c1        254
1  CC1(C)Oc2c(ncnc2Nc2ccc(NC(=O)Nc3cc(C(C)(C)C)nn3-c3ccccc3)cc2)NC1=O         35
2  Fc1ccc(CNc2ccc3[nH]nc(/C=C/c4ccccn4)c3c2)cc1       49.3

Now consider a different compound.
Ask: I am curious: what IC50 value has been reported for Cn1cc(-c2cnc3ccc(NC(=O)NC(C)(C)C)nc3c2)cn1 ?
Reply: 4500
